Data provenance is PubChem BioAssay AID1963969.

- System: 817829-284-R-J1-PDC multi-cell spheroid viability;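 further: spheroids exposed to agents for seven days before readout; percent of vehicle DMSO control viability which is 100%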
- run.description: Anticancer human tumor 817829-284-R-J1-PDC patient-derived colon adenocarcinoma cell line growth inhibition [PI3K]
- condition.details: second compound 0.316 µM; first compound 0.0316 µM; active compounds read low
Could you please report measured viability, T/C for the items listed next?
Numbers only, in %.

# count of solved cases: 2
Identify the measured viability, T/C of CCN1CCN(Cc2ccc(Nc3ncc(F)c(-c4cc(F)c5nc(C)n(C(C)C)c5c4)n3)nc2)CC1 + COc1c(OCCCN2CCOCC2)ccc2c3n(c(=NC(=O)c4cnc(N)nc4)nc12)CCN3 for 817829-284-R-J1-PDC multi-cell spheroid viability.
21.6

Moving on to the next molecule: C=CC(=O)N1CCN(c2nc(=O)n(-c3c(C)ccnc3C(C)C)c3nc(-c4c(O)cccc4F)c(F)cc23)C(C)C1 (stereo not drawn) + Cc1nc(NC(=O)N2CCCC2C(N)=O)sc1-c1ccnc(C(C)(C)C(F)(F)F)c1
80.1

Turning to the following molecule.
Identify the measured viability, T/C of Cn1ncc(Cl)c1-c1cc(C(=O)NC(CN)Cc2cccc(F)c2)sc1Cl (stereo not drawn) + CC(Nc1ccc2c(c1)OCCn1cc(N3C(=O)OCC3C(F)F)nc1-2)C(N)=O for 817829-284-R-J1-PDC multi-cell spheroid viability.
46.4
